METHOD: Water and atmospheric (storage) stability: total impurities by liquid chromatography after storage
Assay type: physicochemical
ASSAY CONDITIONS: 25° C., 75% humidity; 3 weeks
Counter-ions that a name gives are not always drawn.
ASSAY METRIC: Impurity content (%) at 25° C., 75% humidity, 3 weeks

COMPOUND	UNITS OF MEASURE	REPORTED RESULT
CCCOc1ccc(S(=O)(=O)N2CCN(CCO)CC2)cc1-c1nc2c(CCC)cn(CC)c2c(=O)[nH]1 [SK-3530 gentisate salt]	%	0.12
CCCOc1ccc(S(=O)(=O)N2CCN(CCO)CC2)cc1-c1nc2c(CCC)cn(CC)c2c(=O)[nH]1 [SK-3530 hemitartrate salt]	%	0.13
CCCOc1ccc(S(=O)(=O)N2CCN(CCO)CC2)cc1-c1nc2c(CCC)cn(CC)c2c(=O)[nH]1 [SK-3530 maleate salt]	%	0.12
CCCOc1ccc(S(=O)(=O)N2CCN(CCO)CC2)cc1-c1nc2c(CCC)cn(CC)c2c(=O)[nH]1.Cl.Cl [SK-3530 dihydrochloride salt, reference compound]	%	0.31
CCCOc1ccc(S(=O)(=O)N2CCN(CCO)CC2)cc1-c1nc2c(CCC)cn(CC)c2c(=O)[nH]1 [SK-3530 fumarate salt]	%	0.03
CCCOc1ccc(S(=O)(=O)N2CCN(CCO)CC2)cc1-c1nc2c(CCC)cn(CC)c2c(=O)[nH]1 [SK-3530 citrate salt]	%	0.15
